Answer each item with its documented recombinant barcode read abundance (log10).
assay: recombinant barcode read abundance after kanamycin selection (control-corrected) (log10(CPM+1)); higher = more efficient recombination; sequences stand for … in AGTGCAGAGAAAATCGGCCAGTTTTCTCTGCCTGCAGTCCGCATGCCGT…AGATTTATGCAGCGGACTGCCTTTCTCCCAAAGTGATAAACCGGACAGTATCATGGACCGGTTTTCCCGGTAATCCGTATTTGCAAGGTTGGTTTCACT; site = the 11-nt target
One number for each entry.

| Primary Sequence | Recorded Value |
| --- | --- |
| AGGAGTCCTTGGGTTCTAACCTGTTGCAG (site GTACAAGCTAG) | 0.239 |
| TCTCGGTCTTGGGTTCTAACCTGTTGCCT (site TCACGGTCTAG) | 0.71 |
| TTGAAGCCTTGGGTTCTAACCTGTTGCCT (site TTGAAGCCTAG) | 1.38 |

Answer for every listed entry: what is its recombinant barcode read abundance (log10)? The entries follow.
1. TTGTCTCCTTGGGTTCTAACCTGTTGCCT (site CTGTCTCCTAG)
2. ACTAGGACTTGGGTTCTAACCTGTTGCGG (site ACTAGGACTGC)
3. CTTTAAGCTTGGGTTCTAACCTGTTGCTA (site ACCGTTCCTAG)

[0.0237, 0.444, 0.0964]

Answer for every listed entry: what is its recombinant barcode read abundance (log10)? The entries follow.
1. GTAAGTGCTTGGGTTCTAACCTGTTGCCT (site GTAAGTGCTAG)
2. CCGCCCTCTTGGGTTCTAACCTGTTGCCT (site CCGCCCTCTAG)
3. GATCCCACTTGGGTTCTAACCTGTTGCCT (site GATGCCACTAG)
4. CATCAGCCTTGGGTTCTAACCTGTTGCCT (site CATTAGCCTAG)

1: 1.28; 2: 1.04; 3: 0.192; 4: 0.0622

* * *

experiment: recombinant barcode read abundance after kanamycin selection (control-corrected) (log10(CPM+1)); higher = more efficient recombination; sequences stand for … in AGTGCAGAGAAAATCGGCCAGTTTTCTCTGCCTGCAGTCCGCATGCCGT…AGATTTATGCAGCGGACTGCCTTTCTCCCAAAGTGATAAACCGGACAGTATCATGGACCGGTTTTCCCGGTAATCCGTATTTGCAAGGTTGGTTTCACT; site = the 11-nt target
Endpoint: recombinant barcode read abundance (log10)
Numbers only.

Known recombinant barcode read abundance (log10) results, listed for orientation:
| Primary Sequence | Recorded Value |
| --- | --- |
| GCCCGTGCTTGGGTTCTAACCTGTTGCCT (site GCTCGTGCTAG) | 0.0122 |
| TCTGTATCTTGGGTTCTAACCTGTTGCCT (site TCTGTATCTAG) | 0.614 |
| AAGAGTCCTTGGGTTCTAACCTGTTGCGT (site AAAAGTCCTAG) | 0.423 |
| AAGCTAACTTGGGTTCTAACCTGTTGCCT (site AAGCAAACTAG) | 0.044 |

Answer for every listed entry: what is its recombinant barcode read abundance (log10)? The entries follow.
1. TGATCTACTTGGGTTCTAACCTGTTGCTT (site TGATCTACTAA)
2. ACCCTGGCTTGGGTTCTAACCTGTTGCCT (site ACCCTGGCTAG)
3. TCGGATACTTGGGTTCTAACCTGTTGCCT (site TCGGATACTAT)
4. TGGCCGACTTGGGTTCTAACCTGTTGCAC (site TCGCAGACTGT)
5. GTATGTGCTTGGGTTCTAACCTGTTGCAA (site CTATGTGCTTC)

1. 0.0729
2. 0.816
3. 0.0399
4. 0.0415
5. 0.0841

Look up recombinant barcode read abundance (log10) for this sequence: ATACTAACTTGGGTTCTAACCTGTTGCCT (site ACACTAACTAG)
0.477

* * *

test: recombinant UMI read abundance after kanamycin selection (control-corrected) (log10(CPM+1)); higher = more efficient recombination; extreme values may be limits of the assay; sequences stand for … in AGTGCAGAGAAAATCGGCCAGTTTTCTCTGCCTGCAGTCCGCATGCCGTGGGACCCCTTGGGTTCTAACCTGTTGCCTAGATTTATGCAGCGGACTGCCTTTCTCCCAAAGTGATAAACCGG…AGGTTGGTTTCACT; site = the 11-nt donor
Endpoint: recombinant UMI read abundance (log10)

Answer for every listed entry: what is its recombinant UMI read abundance (log10)? The entries follow.
1. GCAGCCCCATGGACCGGTTTTCCCGGTAATCCGTATTTGCT (site GCAGCCCCTAG)
2. CCTCACACATGGACCGGTTTTCCCGGTAATCCGTATTTGTA (site CCACACACTTA)
3. GCTAGAACATGGACCGGTTTTCCCGGTAATCCGTATTTGAG (site ACTAGAACTCT)
4. CGATTGACATGGACCGGTTTTCCCGGTAATCCGTATTTGTT (site CGATTGACTAA)
5. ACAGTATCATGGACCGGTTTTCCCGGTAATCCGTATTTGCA (site ACACTAGCTTG)
6. TTAAGGCCATGGACCGGTTTTCCCGGTAATCCGTATTTGAC (site ATAAGGCCTGT)

1. 2.32
2. 0
3. 0.959
4. 1.24
5. 0.00526
6. 0

* * *

Answer each item with its documented recombinant barcode read abundance (log10).
assay: recombinant barcode read abundance after kanamycin selection (control-corrected) (log10(CPM+1)); higher = more efficient recombination; sequences stand for … in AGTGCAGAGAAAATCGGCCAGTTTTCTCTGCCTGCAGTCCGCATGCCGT…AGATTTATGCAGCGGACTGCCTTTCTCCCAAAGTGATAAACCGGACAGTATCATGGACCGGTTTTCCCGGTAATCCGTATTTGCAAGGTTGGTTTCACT; site = the 11-nt target
One number for each entry.

Known recombinant barcode read abundance (log10) results, listed for orientation:
| Primary Sequence | Recorded Value |
| --- | --- |
| CACTTCCCTTGGGTTCTAACCTGTTGCCT (site CACTTCCCTAT) | 0.0298 |
| GGGCATCCTTGGGTTCTAACCTGTTGCAT (site GGGCATCCTAT) | 1.82 |
| GTATACCCTTGGGTTCTAACCTGTTGCAT (site GTATACCCTTG) | 0.224 |
| TCGAGTTCTTGGGTTCTAACCTGTTGCCT (site TCGAGTGCTAG) | 0.0736 |
| TGCTGTTCTTGGGTTCTAACCTGTTGCCT (site TGCTGTGCTAG) | 0.241 |
| TCCAACTCTTGGGTTCTAACCTGTTGCAC (site CATCCTACTAG) | 0.0443 |
| CGGAAATCTTGGGTTCTAACCTGTTGCCT (site CGAAAATCTAG) | 0.171 |
| ACACAGACTTGGGTTCTAACCTGTTGCGC (site ACATAGACTGC) | 0.00702 |

Answer for every listed entry: what is its recombinant barcode read abundance (log10)? The entries follow.
1. TATTTCTCTTGGGTTCTAACCTGTTGCCT (site TATTTCTCTAG)
2. TGGCCACCTTGGGTTCTAACCTGTTGCCT (site TGGCCACCTAG)

0.157
1.6

* * *

Answer each item with its documented recombinant barcode read abundance (log10).
assay: recombinant barcode read abundance after kanamycin selection (control-corrected) (log10(CPM+1)); higher = more efficient recombination; sequences stand for … in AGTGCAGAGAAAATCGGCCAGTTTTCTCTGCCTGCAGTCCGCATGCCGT…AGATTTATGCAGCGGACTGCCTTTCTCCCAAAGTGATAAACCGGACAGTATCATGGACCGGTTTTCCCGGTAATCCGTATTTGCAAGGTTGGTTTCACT; site = the 11-nt target
Give bare numbers.

Answer for every listed entry: what is its recombinant barcode read abundance (log10)? The entries follow.
1. GGGGTGTCTTGGGTTCTAACCTGTTGCTG (site GGGGTGTCTCA)
2. TGTGAGTCTTGGGTTCTAACCTGTTGCCT (site TGTGAGTCTAT)
3. ATGATATCTTGGGTTCTAACCTGTTGCCT (site AAGATATCTAG)
4. AGTCTCTCTTGGGTTCTAACCTGTTGCCT (site AGTGACTCTAG)
5. TTACGAGCTTGGGTTCTAACCTGTTGCCT (site TCACTAGCTAG)

1: 0.413; 2: 0.0543; 3: 0.0255; 4: 0.0251; 5: 0.131

* * *

Answer each item with its documented recombinant barcode read abundance (log10).
assay: recombinant barcode read abundance after kanamycin selection (control-corrected) (log10(CPM+1)); higher = more efficient recombination; sequences stand for … in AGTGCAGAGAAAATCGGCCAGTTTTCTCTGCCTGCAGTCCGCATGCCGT…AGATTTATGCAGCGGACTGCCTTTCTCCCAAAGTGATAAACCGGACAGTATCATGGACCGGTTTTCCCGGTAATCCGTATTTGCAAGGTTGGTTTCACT; site = the 11-nt target
Numbers only.

Answer for every listed entry: what is its recombinant barcode read abundance (log10)? The entries follow.
1. CTATGTGCTTGGGTTCTAACCTGTTGCCT (site CTATGTGCTAA)
2. CCTGCTCCTTGGGTTCTAACCTGTTGCTT (site CCTGCTCCTAA)
3. AGGAGCCCTTGGGTTCTAACCTGTTGCTC (site AGGAGCCCTTA)
4. TCGGATGCTTGGGTTCTAACCTGTTGCTT (site TCGAATGCTAG)

[0.158, 0.393, 0.0844, 0.349]

Look up recombinant barcode read abundance (log10) for this sequence: ACCATGTCTTGGGTTCTAACCTGTTGCGG (site ACCATGTCTCC)
1.96
